# tgt: CYP1A2 (Homo sapiens, UniProt P05177)
# Sequence (P05177 1-516): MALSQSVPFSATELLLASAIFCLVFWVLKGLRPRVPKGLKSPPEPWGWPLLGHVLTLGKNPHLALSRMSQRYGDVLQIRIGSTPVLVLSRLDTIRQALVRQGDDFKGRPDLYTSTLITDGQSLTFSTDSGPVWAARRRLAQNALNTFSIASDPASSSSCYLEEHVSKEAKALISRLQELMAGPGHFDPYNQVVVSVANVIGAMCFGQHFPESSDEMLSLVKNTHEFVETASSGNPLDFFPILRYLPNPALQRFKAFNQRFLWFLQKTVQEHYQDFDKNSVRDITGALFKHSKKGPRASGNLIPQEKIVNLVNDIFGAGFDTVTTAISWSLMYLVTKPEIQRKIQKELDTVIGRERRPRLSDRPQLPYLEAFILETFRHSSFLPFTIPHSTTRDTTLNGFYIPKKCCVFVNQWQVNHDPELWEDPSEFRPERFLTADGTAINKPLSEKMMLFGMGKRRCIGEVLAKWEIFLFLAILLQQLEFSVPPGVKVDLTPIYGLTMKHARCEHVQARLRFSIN
The reader will find reported IC50 values listed item by item below.

| smiles.entry | IC50 |
| --- | --- |
| CNc1ncnc2[nH]cc(C(=O)c3ccc(Nc4cncc(OC)c4)nc3F)c12 | < 5 µM |
| CCc1ccc(Nc2ccc(C(=O)c3c[nH]c4ncnc(NC5CCC(F)(F)CC5)c34)c(F)n2)cn1 | < 5 µM |
| COc1ccc(Nc2ccc(C(=O)c3c[nH]c4ncnc(NC(C)(C)C)c34)c(F)n2)cn1 | < 10 µM |
| CC(C)=CNc1ncnc2[nH]cc(C(=O)c3ccc(NC4CCC(F)(F)CC4)nc3Cl)c12 | > 10 µM |
| COc1ccc(Nc2ccc(C(=O)c3c[nH]c4ncnc(NCC(F)(F)F)c34)c(F)n2)cn1 | > 10 µM |
| CCOc1ccc(Nc2ccc(Cc3c[nH]c4ncc(C)cc34)c(F)n2)cn1 | > 10 µM |
| CC(C)Nc1ncnc2[nH]cc(C(=O)c3ccc(NC4CCCCC4)nc3F)c12 | > 10 µM |
| Fc1nc(Nc2ccc(C3CC3)nc2)ccc1Cc1c[nH]c2ncccc12 | > 10 µM |
| CCCNc1ncnc2[nH]cc(C(=O)c3ccc(Nc4ccc(C)nc4)nc3F)c12 | > 10 µM |
| CCNc1ncnc2[nH]cc(C(=O)c3ccc(NC4CCC(F)(F)CC4)nc3Cl)c12 | > 10 µM |
| CCn1cc(Nc2ccc(Cc3c[nH]c4ncnc(C5CC5)c34)c(F)n2)cn1 | 5 to 10 µM |
| CCc1ccc(Nc2ccc(C(=O)c3c[nH]c4ncnc(NC5CCOCC5)c34)c(F)n2)cn1 | > 10 µM |
| COc1ccc(Nc2ccc(Cc3c[nH]c4ncc(C)cc34)c(F)n2)cn1 | > 10 µM |
| COc1ncnc2[nH]cc(Cc3ccc(Nc4ccc(Cl)nc4)nc3F)c12 | > 10 µM |
| CCNc1ncnc2[nH]cc(C(=O)c3cnc(NC4CCC(F)(F)CC4)c(F)c3)c12 | > 10 µM |
| Fc1nc(Nc2ccc(C3CC3)nc2)ccc1Cc1c[nH]c2ncnc(C3CC3)c12 | 5 to 10 µM |

====

The reader will find reported IC50 values listed item by item below.
# tgt: BCR-NTRK2 BaF3 cells (Homo sapiens, UniProt Q16620)
# Construct: fused on or other part: P11274 (Breakpoint cluster region protein)
# Sequence (Q16620 538-807): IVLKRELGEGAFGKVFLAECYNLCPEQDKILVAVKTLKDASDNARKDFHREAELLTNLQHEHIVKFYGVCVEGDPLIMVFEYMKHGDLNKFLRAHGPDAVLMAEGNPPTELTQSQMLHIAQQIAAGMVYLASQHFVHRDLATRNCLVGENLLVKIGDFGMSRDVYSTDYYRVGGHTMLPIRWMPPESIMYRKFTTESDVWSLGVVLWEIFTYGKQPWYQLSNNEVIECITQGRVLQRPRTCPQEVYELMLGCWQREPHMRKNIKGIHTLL
# experiment: BaF3 BCR-NTRK2 cell proliferation assay (ATPlite)
# measurement.context: read-out: Inhibition of Cell Proliferation IC50, BCR/BaF3 TrkB
outcome.measure: IC50

| smiles.entry | reported.value |
| --- | --- |
| COc1ccc(Nc2ccc(C(=O)c3c[nH]c4ncnc(N5CCOCC5)c34)c(F)n2)cn1 | > 1000 nM |
| CNc1ncnc2[nH]cc(C(=O)c3ccc(NC4CCC(F)(F)CC4)nc3Cl)c12 | < 1000 nM |
| CCCCNc1ncnc2[nH]cc(C(=O)c3ccc(Nc4ccc(OC)nc4)nc3F)c12 | < 10 nM |
| CNc1ncnc2[nH]cc(C(=O)c3ccc(Nc4cncc(OC)c4)nc3F)c12 | < 1000 nM |
| Fc1cccc(Nc2ncc(Cc3c[nH]c4ncc(Cl)cc34)cn2)c1 | > 10000 nM |
| COCCOc1ncnc2[nH]cc(Cc3ccc(Nc4ccc(OC)nc4)nc3F)c12 | < 100 nM |
| Cc1ccc(Nc2ccc(C(=O)c3c[nH]c4ncnc(NCC(F)(F)F)c34)c(F)n2)cn1 | < 100 nM |
| Cc1cnc2[nH]cc(Cc3cnc(Nc4cc(C5CC5)n[nH]4)nc3)c2c1 | > 1000 nM |

====

UniProt P10721 measurements of IC50, listed per entry.
outcome.measure: IC50

| compound | outcome.measure | reported.value |
| --- | --- | --- |
| COCCOc1ncnc2[nH]cc(Cc3ccc(Nc4ccc(C)nc4)nc3F)c12 | IC50 | < 100 nM |
| Cc1cnc2[nH]cc(Cc3cnc(Nc4ccc(C(O)(C(F)(F)F)C(F)(F)F)cc4)nc3)c2c1 | IC50 | < 100 nM |
| CCc1ccc(Nc2ccc(C(=O)c3c[nH]c4ncnc(NCCCOC)c34)c(F)n2)cn1 | IC50 | < 100 nM |
| COc1ccc(Nc2ncc(Cc3c[nH]c4ncc(C)cc34)cn2)cc1 | IC50 | < 10 nM |
| CCC(C)Nc1ncnc2[nH]cc(C(=O)c3ccc(Nc4ccc(OC)nc4)nc3F)c12 (centres unmarked) | IC50 | < 1000 nM |
| CCCNc1ncnc2[nH]cc(C(=O)c3ccc(Nc4cncc(OC)c4)nc3F)c12 | IC50 | > 1000 nM |
| COc1ccc(Nc2ccc(Cc3c[nH]c4ncc(C)cc34)c(F)n2)cn1 | IC50 | < 1000 nM |
| Cc1cnc2[nH]cc(Cc3cnc(Nc4cc(OC(C)C)n[nH]4)nc3)c2c1 | IC50 | < 1000 nM |

====

# tgt: BCR-KIT BaF3 cells (Homo sapiens, UniProt P10721)
# Construct: fused on or other part: P11274 (Breakpoint cluster region protein)
# Sequence (P10721 589-937): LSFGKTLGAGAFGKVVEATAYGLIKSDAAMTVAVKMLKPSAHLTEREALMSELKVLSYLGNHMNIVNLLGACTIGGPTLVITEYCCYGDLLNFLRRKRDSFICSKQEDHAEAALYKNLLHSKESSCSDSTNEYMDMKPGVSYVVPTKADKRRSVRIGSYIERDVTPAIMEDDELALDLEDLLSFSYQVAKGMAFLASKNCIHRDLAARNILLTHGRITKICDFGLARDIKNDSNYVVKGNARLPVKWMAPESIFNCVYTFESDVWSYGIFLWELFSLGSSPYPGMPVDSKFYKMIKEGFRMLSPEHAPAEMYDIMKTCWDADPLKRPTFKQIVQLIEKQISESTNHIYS
# experiment: BaF3 BCR-KIT cell proliferation assay (ATPlite)
# measurement.context: read-out: Inhibition of Cell Proliferation IC50, BCR/BaF3 Kit
pIC50: −log10 of the molar value.

| compound | tgt | pIC50 |
| --- | --- | --- |
| FC1(F)CCC(Nc2ncc(Cc3c[nH]c4ncc(Cl)cc34)cn2)CC1 [Compound P-3004] | BCR-KIT BaF3 cells (Homo sapiens, UniProt P10721) | < 6.00 |
| COc1ccc(Nc2ccc(C(=O)c3c[nH]c4ncnc(NCc5ccc(C(F)(F)F)nc5)c34)c(F)n2)cn1 [Compound P-4071] | BCR-KIT BaF3 cells (Homo sapiens, UniProt P10721) | > 7.00 |
| CCn1cc(Nc2ccc(Cc3c[nH]c4ncnc(OC)c34)c(F)n2)cn1 [Compound P-4011] | BCR-KIT BaF3 cells (Homo sapiens, UniProt P10721) | < 6.00 |
| COCCOc1ncnc2[nH]cc(Cc3ccc(Nc4ccc(C)nc4)nc3F)c12 [Compound P-4015] | BCR-KIT BaF3 cells (Homo sapiens, UniProt P10721) | < 6.00 |
| CCOc1ccc(Nc2ncc(Cc3c[nH]c4ncc(C)cc34)cn2)cc1 [Compound P-3026] | BCR-KIT BaF3 cells (Homo sapiens, UniProt P10721) | > 7.00 |
| CNc1ncnc2[nH]cc(C(=O)c3ccc(Nc4ccc(OC)nc4)nc3OC)c12 [Compound P-4085] | BCR-KIT BaF3 cells (Homo sapiens, UniProt P10721) | < 6.00 |
| CCc1ccc(Nc2ccc(C(=O)c3c[nH]c4ncnc(C5CC5)c34)c(F)n2)cn1 [Compound P-4029] | BCR-KIT BaF3 cells (Homo sapiens, UniProt P10721) | > 7.00 |
| CNc1ncnc2[nH]cc(C(=O)c3ccc(Nc4ccc(C)nc4)nc3F)c12 [Compound P-4115] | BCR-KIT BaF3 cells (Homo sapiens, UniProt P10721) | > 6.00 |
| Clc1ccc(Nc2ncc(Cc3c[nH]c4ncc(Cl)cc34)cn2)cc1 [Compound P-3011] | BCR-KIT BaF3 cells (Homo sapiens, UniProt P10721) | > 7.00 |
| O=C(c1ccc(Nc2ccc(C3CC3)nc2)nc1F)c1c[nH]c2ncnc(NC3CC3)c12 [Compound P-4093] | BCR-KIT BaF3 cells (Homo sapiens, UniProt P10721) | > 7.00 |
| COCCCNc1ncnc2[nH]cc(C(=O)c3ccc(Nc4ccc(OC)nc4)nc3F)c12 [Compound P-4079] | BCR-KIT BaF3 cells (Homo sapiens, UniProt P10721) | > 7.00 |
| CCN1CCC(Nc2ncnc3[nH]cc(C(=O)c4ccc(Nc5ccc(OC)nc5)nc4F)c23)CC1 [Compound P-4074] | BCR-KIT BaF3 cells (Homo sapiens, UniProt P10721) | > 6.00 |
| COc1ccc(Nc2ccc(C(=O)c3c[nH]c4ncnc(C5CC5)c34)c(F)n2)cn1 [Compound P-4022] | BCR-KIT BaF3 cells (Homo sapiens, UniProt P10721) | > 6.00 |
| CCn1cc(Nc2ccc(C(=O)c3c[nH]c4ncnc(C5CC5)c34)c(F)n2)cn1 [Compound P-4037] | BCR-KIT BaF3 cells (Homo sapiens, UniProt P10721) | > 7.00 |
| CCCCNc1ncnc2[nH]cc(C(=O)c3ccc(Nc4ccc(OC)nc4)nc3F)c12 [Compound P-4080] | BCR-KIT BaF3 cells (Homo sapiens, UniProt P10721) | > 7.00 |
| COc1ccc(Nc2ccc(C(=O)c3c[nH]c4ncnc(N5CCCCC5)c34)c(F)n2)cn1 [Compound P-4069] | BCR-KIT BaF3 cells (Homo sapiens, UniProt P10721) | < 6.00 |
| COc1ccccc1Nc1ncc(Cc2c[nH]c3ncc(Cl)cc23)cn1 [Compound P-3016] | BCR-KIT BaF3 cells (Homo sapiens, UniProt P10721) | < 6.00 |
| Clc1cnc2[nH]cc(Cc3cnc(NC4CCCC4)nc3)c2c1 [Compound P-3003] | BCR-KIT BaF3 cells (Homo sapiens, UniProt P10721) | < 6.00 |
| CCc1ccc(Nc2ccc(C(=O)c3c[nH]c4ncnc(NCC(C)C)c34)c(F)n2)cn1 [Compound P-4121] | BCR-KIT BaF3 cells (Homo sapiens, UniProt P10721) | > 7.00 |
| COc1ccc(Nc2ccc(C(=O)c3c[nH]c4ncnc(NC5CC5)c34)c(F)n2)cn1 [Compound P-4126] | BCR-KIT BaF3 cells (Homo sapiens, UniProt P10721) | > 7.00 |
| O=C(c1ccc(NC2CCC(F)(F)CC2)nc1)c1c[nH]c2ncnc(NCC(F)(F)F)c12 [Compound P-4087] | BCR-KIT BaF3 cells (Homo sapiens, UniProt P10721) | < 6.00 |
| CCC(CC)Nc1ncnc2[nH]cc(C(=O)c3ccc(Nc4ccc(OC)nc4)nc3F)c12 [Compound P-4077] | BCR-KIT BaF3 cells (Homo sapiens, UniProt P10721) | > 7.00 |
| CCn1cc(Nc2ncc(Cc3c[nH]c4ncc(C)cc34)cn2)cn1 [Compound P-3036] | BCR-KIT BaF3 cells (Homo sapiens, UniProt P10721) | > 7.00 |
| COc1ccc(Nc2ccc(C(=O)c3c[nH]c4ncc(C)cc34)c(F)n2)cn1 [Compound P-3040] | BCR-KIT BaF3 cells (Homo sapiens, UniProt P10721) | < 6.00 |
| Cc1cnc2[nH]cc(Cc3cnc(Nc4cc(C(C)(C)C)n[nH]4)nc3)c2c1 [Compound P-3029] | BCR-KIT BaF3 cells (Homo sapiens, UniProt P10721) | > 6.00 |
| COc1ncnc2[nH]cc(Cc3ccc(Nc4ccc(C)nc4)nc3F)c12 [Compound P-4010] | BCR-KIT BaF3 cells (Homo sapiens, UniProt P10721) | > 6.00 |
| Cc1cnc2[nH]cc(Cc3cnc(Nc4ccc(F)cc4)nc3)c2c1 [Compound P-3010] | BCR-KIT BaF3 cells (Homo sapiens, UniProt P10721) | > 6.00 |
| CCOc1ccc(Nc2ccc(Cc3c[nH]c4ncc(C)cc34)c(F)n2)cn1 [Compound P-3039] | BCR-KIT BaF3 cells (Homo sapiens, UniProt P10721) | > 6.00 |
| COc1ccc(Nc2ccc(C(=O)c3c[nH]c4ncnc(NC(C)C)c34)c(F)n2)cn1 [Compound P-4066] | BCR-KIT BaF3 cells (Homo sapiens, UniProt P10721) | > 8.00 |
| CNc1ncnc2[nH]cc(C(=O)c3ccc(NC4CCC(F)(F)CC4)nc3)c12 [Compound P-4089] | BCR-KIT BaF3 cells (Homo sapiens, UniProt P10721) | > 6.00 |
| O=C(c1ccc(NC2CCC(F)(F)CC2)nc1F)c1c[nH]c2ncnc(NC3CC3)c12 [Compound P-4062] | BCR-KIT BaF3 cells (Homo sapiens, UniProt P10721) | > 6.00 |
| COc1ncnc2[nH]cc(Cc3ccc(Nc4ccc(Cl)nc4)nc3F)c12 [Compound P-4003] | BCR-KIT BaF3 cells (Homo sapiens, UniProt P10721) | < 6.00 |
| CCn1ccc(Nc2ncc(Cc3c[nH]c4ncc(C)cc34)cn2)n1 [Compound P-3035] | BCR-KIT BaF3 cells (Homo sapiens, UniProt P10721) | > 6.00 |

Where these numbers come from: patent US8901118B2
